Please go through the items and note down their GI50.
# System: SF-295
# assay.details: NCI tumour cell line growth inhibition, 48 h
Calls of active or inactive are those of the source. Rule as the data show it: active = GI50 up to about 1.1 µM and inactive = higher.

// query GI50 value for entry O=c1ccc(=O)n(-c2ccccc2)[nH]1
> 100 µM (inactive)

Consider the molecule shown here: Cc1cc(N(CCOS(C)(=O)=O)CCOS(C)(=O)=O)ccc1/C=N/c1ccc(-c2nc(Cc3ccccc3)sc2C)cc1 What is its recorded GI50?
1.57 µM (inactive)

Can you share its GI50? I mean this molecule: C[C@@]1(O)C2C3CC4C5C3C1[C@](O)(C42)[C@H]5Br (stereo partly specified)
> 100 µM (inactive)

// lookup GI50 for C[N+](C)(C)CCCSc1nc2ccccc2[nH]1
> 100 µM (inactive)

Entry C[P+](C)(C)C has what GI50?
> 100 µM (inactive)

// lookup GI50 for O=NN(CCCl)C(=O)NCc1ccc[n+]([O-])c1
64.1 µM (inactive)

Give its GI50 value. Item: CC(C)C(NCc1c2ccccc2[n+](C)c2ccccc12)C(=O)O (stereo unspecified)
6.76 µM (inactive)

I have this molecule here, COC(=O)CCC1CCc2c(OC)ccc(O)c2C1=O (stereo unspecified) , and I need its recorded GI50.
> 100 µM (inactive)

# lookup: GI50 of COC(=O)C1=C(C)NC(C)=C(C(=O)OC)C1c1ccc(N=O)cc1
24.4 µM (inactive)

What does the data say about its GI50? Entry: CCc1c(O)c(O)c(C(C)=O)c2c(O)c(-c3c(C)cc4c(CC)c(O)c(O)c(C(C)=O)c4c3O)c(C)cc12
3.03 µM (inactive)

Which GI50 value belongs to O=C(O)C1CCc2ccc3ccccc3c2C1c1cccc2ccccc12 (stereo unspecified) ?
23.9 µM (inactive)

---

# System: IGROV-1
# assay.details: NCI tumour cell line growth inhibition, 48 h
Activity calls are given as the source filed them. No stated cut-off is given here; in the data, active = GI50 up to about 1.1 µM and inactive = higher.
The reply should name one outcome from 1 (active), 0 (inactive)

Check the results log: what was the call for O=NN(CCCl)C(=O)NCc1ccc[n+]([O-])c1 ?
0

How did this test come out for CCC1(Cl)C(=O)NC(=O)N(C2CC(O)C(CO)O2)C1N=[N+]=[N-] (stereo not given) ?
0

Status in this test for NC(N)=NCCC[C@H](N)C(=O)NCC(=O)N[C@@H](CC(=O)O)c1ncc(NC(=O)C(F)(F)F)o1 ?
0

// outcome(item) with item = CN(C)C(=O)Nc1c([N+](=O)[O-])cc(C(F)(F)F)cc1[N+](=O)[O-]
0

Outcome? CCn1c(-c2ccccc2)cs/c1=N\C(P(=O)(O)O)P(=O)(O)O
0

GET /call?item= COc1cccc2c1C(=O)OC2c1cccc2ccccc12 (stereo not given) returns the recorded outcome of this test.
0

Tell me the recorded outcome of this test for Brc1ccc(-c2[nH]c3ccccc3c2/C=N\Nc2ccc(-c3nc4ccccc4[nH]3)cc2)cc1 .
1

Please share the test call associated with COc1cc([C@H]2CC(=O)C[C@@H](c3cc(OC)c(OC)c(OC)c3)C23C(=O)c2ccccc2C3=O)cc(OC)c1OC .
0

Could you check what this test reported for CC1=CCC2(C#N)CCC1C2=O (stereo not given) ?
0

Would you mind telling me which call this test gave CC1=C(C(=O)Nc2cc(F)c(F)cc2F)C(c2ccc(N(C)C)cc2)C(C(=O)Nc2cc(F)c(F)cc2F)=C(C)N1 ?
0

Can you look up the reported call for CCOC(=O)C12CCC(=O)N1N(C)c1ncccc1N2 (stereo not given) for me?
0

For CSc1nc2c(nc(N)n2C2OC(CO)C(O)C(O)C2O)c(=O)n1C (stereo not given) , which call appears in the assay record?
0

Record request — test call for COC(=N)CCCl
0

Look up the recorded call for Nc1nc(-c2ccccc2)cc(-c2cc(Cl)ccc2O)n1 in this test.
0

Hi, do you know how Nc1nc(N)c2ncn(Cc3c(Cl)cccc3Cl)c2n1 came out in this test?
0

For COC(=O)c1cc2c3ccccc3n(C(C)=O)c2cn1 , what call appears in the results of this test?
0

Which outcome did this test record for the molecule CCOC(=O)C(=O)N1C(C)=C(C(=O)OCC)CC(C(=O)OCC)=C1C ?
0

Could you kindly confirm the outcome this assay logged for NC(=S)N/N=C(/CC(=O)c1ccc([N+](=O)[O-])cc1)C(=O)Nc1ncc([N+](=O)[O-])s1 ?
0

Lab log entry: Cc1ccc(S(=O)(=O)n2cc(/C=C/C#N)c(-c3cn(S(=O)(=O)c4ccc(C)cc4)cc3-c3cn(S(=O)(=O)c4ccc(C)cc4)cc3/C=C/C#N)c2)cc1 — outcome as called in the assay?
0

Test call, this molecule: C[C@]12CC[C@@H]3c4ccc(O)cc4CC[C@H]3[C@@H]1C/C(=C\c1ccncc1)[C@@H]2O
0

---

I'd appreciate it if you could supply GI50 values for the items below.
# Test system: K562
# assay.details: NCI tumour cell line growth inhibition, 48 h
The source made the active and inactive calls. Cut-off read from the data, not from the text of the source: active = GI50 up to about 1.1 µM and inactive = higher. Where a SMILES comes first, the peptide text is derived from it. [ ]: non-standard residue; d: D form. The star is where a group is joined. Bn2Val = CC(C)[C@@H](C(=O)*)N(Cc1ccccc1)Cc1ccccc1; NH(3,4-diMeO-benzyl) = COc1ccc(CN*)cc1OC; NMeV = CN[C@H](C(=O)O)C(C)C

Tell me the measured GI50 of Cn1c2ccccc2c(=O)c2cccc(C(=O)NC(CCCNC(=N)N)C(=O)O)c21 (configuration not stated) , please.
> 100 µM (inactive)

Given Cc1[nH]c(-c2ccccc2)c(O)c1C(=O)OC12CC3CC(CC(C3)C1)C2 , state its recorded GI50.
> 100 µM (inactive)

Suppose we examine the compound COc1ccc(/C=C2\CCS(=O)(=O)c3ccccc3C2=O)cc1OC ; what GI50 value has been reported?
> 100 µM (inactive)

Name the reported GI50 value associated with the compound CSc1nc2c(nc(N)n2C2OC(CO)C(O)C(O)C2O)c(=O)n1C (configuration not stated)
> 100 µM (inactive)

Given COc1nc(-c2c[nH]c3ccccc23)cnc1N , state its recorded GI50.
33.6 µM (inactive)

Give the measured GI50 of CC1C(c2ccccc2O)c2cc3c(cc2OC1N1CCCC1)OCO3 (configuration not stated) .
20 µM (inactive)

Bench note: what GI50 did O=C(O)c1ccc(NC(c2ccccc2)c2ccc3cccnc3c2O)cc1 (configuration not stated) show?
3.56 µM (inactive)

For COc1ccc(CNC(=O)[C@@H]2CCCN2C(=O)[C@@H]2CCCN2C(=O)[C@H](C(C)C)N(C)C(=O)[C@@H](NC(=O)[C@H](C(C)C)N(Cc2ccccc2)Cc2ccccc2)C(C)C)cc1OC (Bn2Val-V[NMeV]PP-{NH(3,4-diMeO-benzyl)}) , what is its reported GI50?
7.55 µM (inactive)

What does the record list as GI50 for Nc1ncnc2c1ccn2C/C=C\CO ?
> 100 µM (inactive)

Quick one: GI50 for O=C1CC(n2cccc2)c2cc(Br)sc21 (configuration not stated) ?
> 100 µM (inactive)

Form field: reported GI50 of COc1cc2cc[n+](C)c(Cc3ccccc3)c2cc1OC
> 100 µM (inactive)

What value of measured GI50 is listed for COc1cc2c(cc1OC)[C@@H](Nc1ccc(F)cc1)C1COC(=O)[C@@H]1C2c1cc(OC)c(O)c(OC)c1 (some centres not stated) ?
1.19 µM (inactive)

Would you kindly share the measured GI50 for CCOC(=O)c1c(-c2ccc(Cl)cc2)c(C#N)c(=S)n(C2OC(COC(C)=O)C(OC(C)=O)C(OC(C)=O)C2OC(C)=O)c1-c1ccccc1 (configuration not stated) ?
> 100 µM (inactive)

Which GI50 is listed for COCN1C(=O)[C@@H]2C[C@@H](O)CN2C(=O)c2ccccc21 ?
> 100 µM (inactive)

// lookup GI50 for COc1c(O)ccc(C2=Cc3ccc(O)cc3OC2)c1OC
7.08 µM (inactive)

# query: GI50 of entry COc1ccc(-c2cn3c(nc4ccccc43)c(C)n2)cc1
> 100 µM (inactive)

Given the compound COC(=O)C1=Nc2c(C)nn(-c3ccccc3)c2N=C(c2ccc(C)cc2)C1 , what is its reported GI50?
> 10 µM (inactive)

---

Hi there, I'd appreciate the recorded GI50 for every entry that follows.
# Tested on: HCC 2998
# assay.details: NCI tumour cell line growth inhibition, 48 h
Activity calls are given as the source filed them. Rule as the data show it: active = GI50 up to about 1.1 µM and inactive = higher.

Reported GI50, compound C[P+]1(Cc2ccccc2)CCCC1 : ____
71.1 µM (inactive)

Give its GI50 value. Item: CN(C)/C=N/[C@@H](C(=O)O)c1ccccc1
> 100 µM (inactive)

# get_value(readout='GI50', item= C=C1CC2CC(=O)C(O)C(C1)C2 (stereo unspecified) )
> 100 µM (inactive)

Data request, read-out GI50, for COc1cc(OC)c(OC)cc1/C=C/c1cnnc2ccccc12
> 10 µM (inactive)

Returns the measured GI50 for the input compound. Input: O=C1/C(=C/c2ccncc2)C(n2cccc2)c2c(Br)sc(Br)c21 (stereo unspecified)
1.88 µM (inactive)

Param item = O=C(O)c1ccc2c(c1)CC1(C2)Cc2cc3c(cc2C1=O)CCC3 (stereo unspecified) ; retrieve measured GI50.
> 100 µM (inactive)

Entry CC(C)OC(=O)NNc1c(Cl)cc(Cl)cc1Cl has what GI50?
89.9 µM (inactive)

State the recorded GI50 for this entry: COc1ccc(N[S+]([O-])c2ccccc2OC)cc1 (stereo unspecified)
> 10 µM (inactive)

Name the recorded GI50 for NC(=O)N/N=C(/CC1C(=O)Oc2ccccc21)c1ccccc1O (stereo unspecified) .
35 µM (inactive)

Which GI50 reading was recorded for the compound CCN(CC)CCOC(=O)c1ccc(N)cc1.CCOC(=O)Nc1ccc(S(=O)(=O)OC)cc1.CCOC(=O)Nc1ccc(S(=O)(=O)OC)cc1.Nc1ccc(C(=O)O)c(O)c1 ?
> 100 µM (inactive)

What does the record list as GI50 for COc1ccc(C2C(Cl)C(=O)N2NC(=O)Cc2ccccc2)cc1 (stereo unspecified) ?
> 100 µM (inactive)
